# Tested on: E. coli
# ASSAY_METHOD_TEXT: in vitro antibacterial activity, two-fold serial dilution in Brain-Heart Infusion Broth (MIC)
# Format: cell-based
# MEASUREMENT_PARAMETERS: Escherichia coli, overnight, anaerobic
Values of MIC strictly less than 10 µg/mL map to yes (1), and values of at least 10 µg/mL map to no (0).

>  <COMPOUND>
CN(C)CCCS(=O)(=O)Cc1c(C(=O)NCCO)[n+]([O-])c2ccccc2[n+]1[O-] [NHCH2 CH2 OH; SO2 (CH2)3 N(CH3)2; H]

>  <CAT>
no (0)

$$$$
>  <COMPOUND>
CN(C)CCCS(=O)(=O)Cc1c(C(=O)N(C)C)[n+]([O-])c2ccccc2[n+]1[O-] [N(CH3)2; SO2 (CH2)3 N(CH3)2; H]

>  <CAT>
yes (1)

$$$$
>  <COMPOUND>
CCNC(=O)c1c(CS(=O)(=O)CCCN2CCOCC2)[n+]([O-])c2ccccc2[n+]1[O-] [NHCH2 CH3; drawing 17; H]

>  <CAT>
no (0)

$$$$
>  <COMPOUND>
CCNC(=O)c1c(CS(=O)(=O)CCCCN2CCCCC2)[n+]([O-])c2ccccc2[n+]1[O-] [NHCH2 CH3; drawing 32; H]

>  <CAT>
no (0)

$$$$
>  <COMPOUND>
CNC(=O)c1c(CSCCO)[n+]([O-])c2ccccc2[n+]1[O-] [NHMe; SCH2 CH2 OH; H]

>  <CAT>
yes (1)

$$$$
>  <COMPOUND>
CCN(CC)CCCS(=O)(=O)Cc1c(C(N)=O)[n+]([O-])c2ccccc2[n+]1[O-] [NH2; SO2 (CH2)3 N(CH2 CH3)2; H]

>  <CAT>
yes (1)

$$$$
>  <COMPOUND>
CCC(CO)NC(=O)c1c(CS(=O)(=O)CCO)[n+]([O-])c2ccccc2[n+]1[O-] (stereo not drawn) [NHCHEtCH2 OH; SO2 CH2 CH2 OH; H]

>  <CAT>
no (0)

$$$$
>  <COMPOUND>
CCN(CC)CCCNC(=O)c1c(CS(=O)(=O)CCO)[n+]([O-])c2ccccc2[n+]1[O-] [NH(CH2)3 N(Et)2; SO2 CH2 CH2 OH; H]

>  <CAT>
no (0)

$$$$
>  <COMPOUND>
O=C(NCCO)c1c(CS(=O)(=O)CCCN2CCCCC2)[n+]([O-])c2ccccc2[n+]1[O-] [NHCH2 CH2 OH; drawing 22; H]

>  <CAT>
no (0)

$$$$
>  <COMPOUND>
CCOC(=O)CSCc1c(C(=O)NC)[n+]([O-])c2ccccc2[n+]1[O-] [NHCH3; SCH2 CO2 Et; H]

>  <CAT>
no (0)

$$$$
>  <COMPOUND>
CN(C)C(=O)c1c(CS(=O)(=O)CCCCN2CCCCC2)[n+]([O-])c2ccccc2[n+]1[O-] [N(CH3)2; drawing 30; H]

>  <CAT>
no (0)

$$$$
>  <COMPOUND>
CN(C)C(=O)c1c(CS(=O)(=O)CCCN2CCOCC2)[n+]([O-])c2ccccc2[n+]1[O-] [N(CH3)2; drawing 19; H]

>  <CAT>
no (0)

$$$$
>  <COMPOUND>
CNC(=O)c1c(CS(=O)(=O)CCCO)[n+]([O-])c2ccccc2[n+]1[O-] [NHMe; SO2 CH2 CH2 CH2 OH; H]

>  <CAT>
no (0)

$$$$
>  <COMPOUND>
CN(C)C(=O)c1c(CS(=O)(=O)CCCN2CCCC2)[n+]([O-])c2ccccc2[n+]1[O-] [N(CH3)2; drawing 15; H]

>  <CAT>
yes (1)

$$$$
>  <COMPOUND>
COCCNC(=O)c1c(CS(=O)(=O)CCCN(C)C)[n+]([O-])c2ccccc2[n+]1[O-] [NHCH2 CH2 OCH3; SO2 (CH2)3 N(CH3)2; H]

>  <CAT>
no (0)

$$$$
>  <COMPOUND>
CCN(CC)CCCS(=O)(=O)Cc1c(C(=O)N(C)C)[n+]([O-])c2ccccc2[n+]1[O-] [N(CH3)2; SO2 (CH2)3 N(CH2 CH3)2; H]

>  <CAT>
no (0)

$$$$
>  <COMPOUND>
CCCCNC(=O)c1c(CS(=O)(=O)CCCN(C)C)[n+]([O-])c2ccccc2[n+]1[O-] [NH(CH2)3 CH3; SO2 (CH2)3 N(CH3)2; H]

>  <CAT>
no (0)

$$$$
>  <COMPOUND>
CCCNC(=O)c1c(CS(=O)(=O)CCCOC(C)=O)[n+]([O-])c2ccccc2[n+]1[O-] [NHCH2 CH2 CH3; SO2 CH2 CH2 CH2 OAc; H]

>  <CAT>
no (0)

$$$$
>  <COMPOUND>
CCCNC(=O)c1c(CS(=O)(=O)CCCN(C)C)[n+]([O-])c2ccccc2[n+]1[O-] [NHCH2 CH2 CH3; SO2 (CH2)3 N(CH3)2; H]

>  <CAT>
no (0)

$$$$
>  <COMPOUND>
NC(=O)c1c(CS(=O)(=O)CCCN2CCCCC2)[n+]([O-])c2ccccc2[n+]1[O-] [NH2; drawing 24; H]

>  <CAT>
yes (1)

$$$$
>  <COMPOUND>
CNC(=O)c1c(CS(=O)(=O)CCCN2CCCC2)[n+]([O-])c2ccccc2[n+]1[O-] [NHCH3; drawing 13; H]

>  <CAT>
yes (1)

$$$$

----------
# Test system: Strep. pyogenes
# ASSAY_METHOD_TEXT: in vivo activity in mice infected with a lethal inoculum of Strep. pyogenes
# MEASUREMENT_PARAMETERS: Streptococcus pyogenes, oral, multiple dosing, read-out: IN VIVO Strep. pyogenes, number of survivors among the treated animals, PO (data in parenthesis)
# Protocol: In determining the in vivo activity of the quinoxaline-1,4-dioxides of this invention, the test compound is administered to mice which have been infected by […] injection of a lethal inoculum of pathogenic bacteria. The test compound is administered using a multiple dosing regimen and using either the oral (PO) or the subcutaneous (SC) route. […] At the end of the test, the activity of the compound is assessed by counting the number of survivors among the treated animals. […]
# Lookup of reported responders at 50 mg/kg keyed by entry
MEASURED_PROPERTY: responders at 50 mg/kg

>  <COMPOUND>
CN(C)CCCS(=O)(=O)Cc1c(C(N)=O)[n+]([O-])c2ccccc2[n+]1[O-]

>  <EXPERIMENTAL_SYSTEM>
Strep. pyogenes

>  <EXPERIMENTAL_VALUE>
20%

$$$$
>  <COMPOUND>
NC(=O)c1c(CS(=O)(=O)CCCN2CCOCC2)[n+]([O-])c2ccccc2[n+]1[O-] [NH2; drawing 20; H]

>  <EXPERIMENTAL_SYSTEM>
Strep. pyogenes

>  <EXPERIMENTAL_VALUE>
60%

$$$$
>  <COMPOUND>
NC(=O)c1c(CS(=O)(=O)CCO)[n+]([O-])c2ccccc2[n+]1[O-]

>  <EXPERIMENTAL_SYSTEM>
Strep. pyogenes

>  <EXPERIMENTAL_VALUE>
80%

$$$$

----------
# Tested on: Strep. pyogenes
# ASSAY_METHOD_TEXT: in vivo activity in mice infected with a lethal inoculum of Strep. pyogenes
# MEASUREMENT_PARAMETERS: Streptococcus pyogenes, oral, multiple dosing, read-out: IN VIVO Strep. pyogenes, number of survivors among the treated animals, PO (data in parenthesis)
# Lookup of reported responders at 50 mg/kg keyed by entry
MEASURED_PROPERTY: responders at 50 mg/kg (%)

>  <COMPOUND>
CN(C)C(=O)c1c(CS(=O)(=O)CCCN2CCCCC2)[n+]([O-])c2ccccc2[n+]1[O-] [N(CH3)2; drawing 27; H]

>  <EXPERIMENTAL_SYSTEM>
Strep. pyogenes

>  <EXPERIMENTAL_VALUE>
100

$$$$
>  <COMPOUND>
COCCNC(=O)c1c(CS(=O)(=O)CCO)[n+]([O-])c2ccccc2[n+]1[O-] [NHCH2 CH2 OCH3; SO2 CH2 CH2 OH; H]

>  <EXPERIMENTAL_SYSTEM>
Strep. pyogenes

>  <EXPERIMENTAL_VALUE>
0

$$$$
>  <COMPOUND>
CCNC(=O)c1c(CSCCCOC(C)=O)[n+]([O-])c2ccccc2[n+]1[O-] [NHCH2 CH3; SCH2 CH2 CH2 OAc; H]

>  <EXPERIMENTAL_SYSTEM>
Strep. pyogenes

>  <EXPERIMENTAL_VALUE>
20

$$$$
>  <COMPOUND>
CNC(=O)c1c(CS(=O)(=O)CCCO)[n+]([O-])c2ccccc2[n+]1[O-] [NHMe; SO2 CH2 CH2 CH2 OH; H]

>  <EXPERIMENTAL_SYSTEM>
Strep. pyogenes

>  <EXPERIMENTAL_VALUE>
30

$$$$
